Below are IC50 values measured for Sodium-dependent serotonin transporter (Homo sapiens).
PROPERTY NAME: IC50

>>> endpoint_result("O=S(=O)(Nc1ccc2c(c1)/C(=N/NC1=NCCN1)CC2)c1c(Cl)nc2sccn12")
"> 10 µM"
>>> endpoint_result("Cl.N=C(N)N/N=C1\\CCc2ccc(NS(=O)(=O)c3c(Cl)nc4sccn34)cc21")
"> 10 µM"

* * *

inhibition reference
Target: UniProt:P50406
Sequence (P50406 whole entry): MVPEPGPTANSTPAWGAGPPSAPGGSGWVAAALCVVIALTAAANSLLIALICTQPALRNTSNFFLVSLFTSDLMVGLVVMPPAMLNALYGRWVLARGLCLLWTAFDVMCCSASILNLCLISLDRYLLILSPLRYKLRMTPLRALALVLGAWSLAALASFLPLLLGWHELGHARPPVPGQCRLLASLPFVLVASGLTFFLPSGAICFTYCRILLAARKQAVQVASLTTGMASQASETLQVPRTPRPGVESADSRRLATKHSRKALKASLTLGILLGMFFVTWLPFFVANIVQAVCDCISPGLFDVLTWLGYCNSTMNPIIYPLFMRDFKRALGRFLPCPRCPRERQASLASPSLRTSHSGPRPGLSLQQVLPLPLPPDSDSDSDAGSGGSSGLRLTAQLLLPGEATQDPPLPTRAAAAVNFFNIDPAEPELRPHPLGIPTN
Experiment: Inhibition of [3H]LSD binding to human recombinant 5HT6 receptor expressed in HEK293 cells at 100 nM after 60 mins by liquid scintillation counting
Format: cell-based
PROPERTY NAME: inhibition

>>> endpoint_result("CC1Cc2ccc(NS(=O)(=O)c3c(Cl)nc4sccn34)cc2/C1=N/NC(=N)N.Cl (racemic)")
"> 80%"
>>> endpoint_result("CN1CCOc2ccc(S(=O)(=O)Nc3ccc4c(c3)/C(=N/NC(=N)N)CC4)cc21")
"> 80%"
>>> endpoint_result("N=C(N)N/N=C1\\CCc2c(NS(=O)(=O)c3c(Cl)nc4sccn34)cccc21")
"2%"
>>> endpoint_result("Cl.N=C(N)N/N=C1\\CCc2cc(NS(=O)(=O)c3c(Cl)nc4sccn34)ccc21")
"> 80%"
>>> endpoint_result("CC1(C)C/C(=N\\NC(=N)N)c2cc(NS(=O)(=O)c3c(Cl)nc4sccn34)ccc21.Cl")
"> 80%"
